studyTarget: His6-PYR1 / biotin-PP2C (Arabidopsis thaliana)
Construct: made in house; host or cells: E. coli is stated for PYL1, PYL2 and the PP2Cs, not expressly for PYR1
Sequence (O49686 whole entry): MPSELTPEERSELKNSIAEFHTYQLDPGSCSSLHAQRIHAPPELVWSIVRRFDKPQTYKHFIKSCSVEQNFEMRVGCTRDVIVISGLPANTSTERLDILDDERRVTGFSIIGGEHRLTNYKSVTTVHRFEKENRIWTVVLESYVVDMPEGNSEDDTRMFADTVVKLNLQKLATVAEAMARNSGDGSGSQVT
protocolDescription: AlphaScreen luminescence proximity assay, PYR1-PP2C interaction
Format: biochemical
measurementSetup: 100 nM His6-PYR1, 100 nM biotin-PP2C, 100 μM agonist; normalized against a pyrabactin control
quantityName: Stimulation of the interaction between PYR1 and PP2C (binding signal)

# compound, value
records = [
    ("O=C(CNS(=O)(=O)c1ccccc1)OCc1ccc(Cl)c(Cl)c1 [Compound 6]", "++ (++ is 25,000−75,000)"),
    ("CC(C)c1ccccc1OCCNS(=O)(=O)c1ccc2ccccc2c1 [Compound 7]", "++ (++ is 25,000−75,000)"),
    ("O=S(=O)(NCCOc1ccccc1)c1ccc2ccccc2c1 [Compound 8]", "+ (+ is <25,000)"),
    ("CCOC(=O)C1OC(NC(=O)CSc2nnc(-c3ccccc3OCC)o2)C(C#N)C1C (stereo not drawn) [Compound 5]", "+ (+ is <25,000)"),
    ("CCCN(CCC)C(=O)[C@@H](CCC(=O)O)NS(=O)(=O)c1ccc(C)cc1 [Compound 13]", "+ (+ is <25,000)"),
    ("CSCCCC(NS(=O)(=O)c1ccc(Br)c2ccccc12)C(=O)O (stereo not drawn) [Compound 3]", "++ (++ is 25,000−75,000)"),
    ("CCN1C(=O)c2cccc3c(S(=O)(=O)NC[C@@H]4CCCO4)ccc1c23 [Compound 11]", "+++ (+++ is >75,000)"),
    ("O=S(=O)(NC[C@@H]1CCCO1)c1ccc(Br)c2ccccc12 [Compound 12]", "+++ (+++ is >75,000)"),
    ("CC(=O)c1cccc(N/C=C/C(=O)c2ccc(Cl)c(Cl)c2)c1 [Compound 15]", "+ (+ is <25,000)"),
    ("CCOC(=O)CNS(=O)(=O)c1ccc2c3c(cccc13)C(=O)N2CC [Compound 2]", "+++ (+++ is >75,000)"),
    ("CC1(C)CC(=O)C(/C=N/CCc2ccc(S(N)(=O)=O)cc2)=C(O)C1 [Compound 10]", "+ (+ is <25,000)"),
    ("O=C1Nc2ccc(S(=O)(=O)NCc3ccccn3)c3cccc1c23 [Compound 1]", "+ (+ is <25,000)"),
    ("CCCCOc1cccc(C(=O)NC(=S)Nc2ccc(S(N)(=O)=O)cc2)c1 [Compound 9]", "+ (+ is <25,000)"),
    ("O=S(=O)(NCc1ccccn1)c1ccc2ccccc2c1 [Compound 4]", "+++ (+++ is >75,000)"),
    ("Cc1ccc(C(=O)O)cc1NC(=S)NC(=O)c1ccccc1Cl [Compound 14]", "+ (+ is <25,000)"),
]

Reference source: patent US20130045952A1
